Peptide remaining values, listed per item
Assay: Resistance to proteolytic degradation in fetal bovine serum
Assay type: in vitro ADME
Details: 25% fetal bovine serum in water, 37 °C, LC peak area, time 0 = 100; 6 h; replicate 3
No end group written: not given here.
Response field accepts a number only; no unit should be typed.

- Substance: "FLGTLWGGAKGVF-NH2 [VP]"
  Observed Result: 0.0

**Query** Please look up its Peptide remaining: FLPLIGRVLSGIL-NH2 [Temporin A, reference compound]
**Result** 0

**Query** Please look up its Peptide remaining: ILGTILGLLKGL-NH2 [Protonectin, reference compound]
**Result** 0.0

**Query** Please look up its Peptide remaining: FLGAIGNVLKSIL-NH2 [TV]
**Result** 0

**Query** Please look up its Peptide remaining: SLLSLIRKLIT-NH2 [Decoralin, reference compound]
**Result** 0.0
